Origin of values: patent US20170052184A1

Target: T1, HCV Core1-169 recombinant antigen (hepatitis C virus (HCV-1), UniProt P26664 1-169)
T1 sequence: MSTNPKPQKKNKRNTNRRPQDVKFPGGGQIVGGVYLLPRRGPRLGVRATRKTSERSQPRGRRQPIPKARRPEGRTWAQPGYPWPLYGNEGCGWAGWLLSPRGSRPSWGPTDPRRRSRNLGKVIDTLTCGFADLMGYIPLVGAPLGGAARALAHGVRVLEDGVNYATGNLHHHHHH
Test: sandwich EIA, 25 ng/ml core1-169; capture mAb 208A-110
Entries and their OD492 nm
Form entry: value (OD492) — number only.

HCV 208A-293 monoclonal antibody (antibody, V domains shown) VH: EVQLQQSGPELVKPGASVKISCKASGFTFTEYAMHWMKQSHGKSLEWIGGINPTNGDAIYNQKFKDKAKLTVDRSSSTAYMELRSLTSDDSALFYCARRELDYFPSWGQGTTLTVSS VL: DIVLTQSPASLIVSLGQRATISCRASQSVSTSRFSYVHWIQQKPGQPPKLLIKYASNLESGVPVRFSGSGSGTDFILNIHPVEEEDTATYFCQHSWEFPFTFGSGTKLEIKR :: 0.52
208B-395-334 monoclonal antibody (antibody, V domains shown) VH: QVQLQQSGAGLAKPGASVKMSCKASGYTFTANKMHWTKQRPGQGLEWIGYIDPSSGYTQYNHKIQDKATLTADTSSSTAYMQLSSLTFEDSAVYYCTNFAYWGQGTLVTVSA VL: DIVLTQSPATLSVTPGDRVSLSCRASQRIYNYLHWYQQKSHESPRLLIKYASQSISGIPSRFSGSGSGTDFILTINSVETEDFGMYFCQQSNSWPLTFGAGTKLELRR :: 0.21

// moving on: another record for OD492 nm
// lookup OD492 nm for HCV 208B-1096 monoclonal antibody (antibody, V domains shown) VH: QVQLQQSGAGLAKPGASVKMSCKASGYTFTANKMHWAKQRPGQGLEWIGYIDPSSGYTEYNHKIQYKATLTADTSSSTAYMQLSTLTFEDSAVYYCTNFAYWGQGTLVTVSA VL: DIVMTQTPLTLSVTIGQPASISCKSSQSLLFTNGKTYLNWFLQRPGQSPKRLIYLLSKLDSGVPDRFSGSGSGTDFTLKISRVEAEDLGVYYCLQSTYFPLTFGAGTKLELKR
0.19
